tested on: ACHN renal; assay: NCI-60 one-dose screen, 48 h; details: 10 µM
The panel holds about 83,000 compounds, 20% with a hit somewhere; the sample as a whole holds those more often. Calls of active or inactive are those of the source. How the source made its calls: active means growth percent below 10; inactive means the rest.
Field 'call' accepts true (1) for active, false (0) for inactive

{"columns": ["Compound", "Target desc", "Discrete label"],
 "data": [
  ["CNC(=O)c1cn(C2CC2)c2cc(N3CCN(C(=O)c4cc(OC)c(OC)c(OC)c4)CC3)c(F)cc2c1=O", "ACHN renal", "false (0)"],
  ["COc1ccc2c(c1)OC(N)=C(C#N)C2c1cc(OC)c(OC)c(OC)c1 (stereo not drawn)", "ACHN renal", "false (0)"],
  ["CCn1cc(CNc2ccc(C(=O)Nc3ccc4ccccc4c3)cc2)c(C)n1", "ACHN renal", "false (0)"]
]}

What outcome does the record of this test show for CN(C)CCCSc1ccccc1NC1=C(Cl)C(=O)C(Nc2ccccc2SCCCN(C)C)=C(Cl)C1=O ?
true (1)

What outcome does the record of this test show for CC(=O)OC1CC2C(C)(C)CCC[C@]2(C)C2=C1C(O)=C(C(C)C)C(=O)C2=O (stereo partly drawn) ?
true (1)

What outcome does the record of this test show for CC(=O)Nc1ccc(CC[C@H]2CCC/C=C/[C@@H]3C[C@H](O)C[C@H]3[C@H](O)/C=C/C(=O)O2)cc1 ?
true (1)

What outcome does the record of this test show for COc1ccc(-c2n[nH]nc2-c2cc(OC)c3c(c2OC)OCO3)cc1 ?
false (0)

What outcome does the record of this test show for CC[C@@H]1NC(=O)[C@H]([C@H](O)[C@H](C)C/C=C/c2ccc(CN3C(=O)CCCC3=O)cc2)N(C)C(=O)[C@H](C(C)C)N(C)C(=O)[C@H](CC(C)C)N(C)C(=O)[C@H](CC(C)C)N(C)C(=O)[C@@H](C)NC(=O)[C@H](C)NC(=O)[C@H](CC(C)C)N(C)C(=O)[C@H](C(C)C)NC(=O)[C@H](CC(C)C)N(C)C(=O)CN(C)C1=O ?
false (0)

Just for reference, PubChem BioAssay (NCI) is where these values come from.
